# Test system: Escherichia coli TOP10;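 also: peptides expressed intracellularly from a pBAD plasmid library in pooled LB shake-flask culture, induced with 0.3% L-arabinose, DNA abundance read by NGS, three biological replicates, DESeq2 with apeglm shrinkage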
# assayMethodText: shrunken log2 fold change of peptide-encoding DNA abundance (4.5 h post-induction vs induction); higher = less antimicrobial activity (less host growth inhibition)
# particulars: time post-induction: 4.5 h; library: site-saturation at positions 5, 18, 19, 20
Categorize each record by its shrunken log2 fold change using range 1 (below -0.03), range 2 (-0.03 to below 0.1), range 3 (0.1 or more)

[[record]]
itemsequence = "RRIRRRPPRLPRPRPRPDIVPRP"
answerlabel = "range 3"


Now consider a different sequence.
For the record RRIRVRPPRLPRPRPRPPHAPRP , report the class its shrunken log2 fold change corresponds to. range 3
